- test_name: Drug distribution in Sprague-Dawley rat liver at 10 mg/kg, po measured at 1 hr by LC-MS/MS analysis
- Assay type: ADME, organism-based
- condition_notes: read-out: Ct
value_type: concentration at 1 h (ng/g)

compound	value_type	test_value
CC(=O)N1CCc2c(c(N3CCCc4cc(-c5cnn(C)c5)c(C(F)F)cc43)nn2[C@H]2CC[C@H](CN3Cc4cc5c(cc4C3)C(=O)N(C3CCC(=O)NC3=O)C5=O)CC2)C1 (stereo partly specified)	concentration at 1 h	4100

----------
- test_name: Cmax in ICR mouse at 3 mg/kg, po measured upto 24 hrs by LC/MS-MS analysis
- Type: ADME, organism-based
- condition_notes: in vivo
value_type: Cmax (ng/mL)

compound	test_value
CC(=O)N1CCc2c(c(N3CCCc4cc(-c5cnn(C)c5)c(C(F)F)cc43)nn2[C@H]2CC[C@H](CN3Cc4cc5c(cc4C3)C(=O)N(C3CCC(=O)NC3=O)C5=O)CC2)C1 (stereo partly specified)	725

----------
- system_name: Bromodomain-containing protein 4 (Homo sapiens)
- test_name: Binding affinity to BRD4 (unknown origin) assessed as dissociation constant by ITC analysis
pKd: −log10 of the molar value.
Quick reference: pKd of the listed items.
value_type: pKd

compound_string	value_type	test_value
CC(=O)N1CCc2c(c(N3CCCc4cc(-c5cnn(C)c5)c(C(F)F)cc43)nn2C2CCOCC2)C1	pKd	6.70
CNC(=O)N1CCc2c(c(N3CCCc4cc(-c5cnn(C)c5)c(C(F)F)cc43)nn2C2CCOCC2)C1	pKd	8.34

----------
- test_name: Drug concentration in SCID mouse tumor at 1 mg/kg, po measured at 24 hrs by LC-MS/MS analysis
- Type: ADME, organism-based, Neoplasm
- condition_notes: read-out: Ct

molecule	measure_unit	concentration at 24 h
CC(=O)N1CCc2c(c(N3CCCc4cc(-c5cnn(C)c5)c(C(F)F)cc43)nn2[C@H]2CC[C@H](CN3Cc4cc5c(cc4C3)C(=O)N(C3CCC(=O)NC3=O)C5=O)CC2)C1 (stereo partly specified)	ng/g	6.3

----------
- system_name: Protein cereblon/Histone acetyltransferase p300 (Homo sapiens, UniProt Q09472+Q96SW2)
- Sequence (Q09472 whole entry): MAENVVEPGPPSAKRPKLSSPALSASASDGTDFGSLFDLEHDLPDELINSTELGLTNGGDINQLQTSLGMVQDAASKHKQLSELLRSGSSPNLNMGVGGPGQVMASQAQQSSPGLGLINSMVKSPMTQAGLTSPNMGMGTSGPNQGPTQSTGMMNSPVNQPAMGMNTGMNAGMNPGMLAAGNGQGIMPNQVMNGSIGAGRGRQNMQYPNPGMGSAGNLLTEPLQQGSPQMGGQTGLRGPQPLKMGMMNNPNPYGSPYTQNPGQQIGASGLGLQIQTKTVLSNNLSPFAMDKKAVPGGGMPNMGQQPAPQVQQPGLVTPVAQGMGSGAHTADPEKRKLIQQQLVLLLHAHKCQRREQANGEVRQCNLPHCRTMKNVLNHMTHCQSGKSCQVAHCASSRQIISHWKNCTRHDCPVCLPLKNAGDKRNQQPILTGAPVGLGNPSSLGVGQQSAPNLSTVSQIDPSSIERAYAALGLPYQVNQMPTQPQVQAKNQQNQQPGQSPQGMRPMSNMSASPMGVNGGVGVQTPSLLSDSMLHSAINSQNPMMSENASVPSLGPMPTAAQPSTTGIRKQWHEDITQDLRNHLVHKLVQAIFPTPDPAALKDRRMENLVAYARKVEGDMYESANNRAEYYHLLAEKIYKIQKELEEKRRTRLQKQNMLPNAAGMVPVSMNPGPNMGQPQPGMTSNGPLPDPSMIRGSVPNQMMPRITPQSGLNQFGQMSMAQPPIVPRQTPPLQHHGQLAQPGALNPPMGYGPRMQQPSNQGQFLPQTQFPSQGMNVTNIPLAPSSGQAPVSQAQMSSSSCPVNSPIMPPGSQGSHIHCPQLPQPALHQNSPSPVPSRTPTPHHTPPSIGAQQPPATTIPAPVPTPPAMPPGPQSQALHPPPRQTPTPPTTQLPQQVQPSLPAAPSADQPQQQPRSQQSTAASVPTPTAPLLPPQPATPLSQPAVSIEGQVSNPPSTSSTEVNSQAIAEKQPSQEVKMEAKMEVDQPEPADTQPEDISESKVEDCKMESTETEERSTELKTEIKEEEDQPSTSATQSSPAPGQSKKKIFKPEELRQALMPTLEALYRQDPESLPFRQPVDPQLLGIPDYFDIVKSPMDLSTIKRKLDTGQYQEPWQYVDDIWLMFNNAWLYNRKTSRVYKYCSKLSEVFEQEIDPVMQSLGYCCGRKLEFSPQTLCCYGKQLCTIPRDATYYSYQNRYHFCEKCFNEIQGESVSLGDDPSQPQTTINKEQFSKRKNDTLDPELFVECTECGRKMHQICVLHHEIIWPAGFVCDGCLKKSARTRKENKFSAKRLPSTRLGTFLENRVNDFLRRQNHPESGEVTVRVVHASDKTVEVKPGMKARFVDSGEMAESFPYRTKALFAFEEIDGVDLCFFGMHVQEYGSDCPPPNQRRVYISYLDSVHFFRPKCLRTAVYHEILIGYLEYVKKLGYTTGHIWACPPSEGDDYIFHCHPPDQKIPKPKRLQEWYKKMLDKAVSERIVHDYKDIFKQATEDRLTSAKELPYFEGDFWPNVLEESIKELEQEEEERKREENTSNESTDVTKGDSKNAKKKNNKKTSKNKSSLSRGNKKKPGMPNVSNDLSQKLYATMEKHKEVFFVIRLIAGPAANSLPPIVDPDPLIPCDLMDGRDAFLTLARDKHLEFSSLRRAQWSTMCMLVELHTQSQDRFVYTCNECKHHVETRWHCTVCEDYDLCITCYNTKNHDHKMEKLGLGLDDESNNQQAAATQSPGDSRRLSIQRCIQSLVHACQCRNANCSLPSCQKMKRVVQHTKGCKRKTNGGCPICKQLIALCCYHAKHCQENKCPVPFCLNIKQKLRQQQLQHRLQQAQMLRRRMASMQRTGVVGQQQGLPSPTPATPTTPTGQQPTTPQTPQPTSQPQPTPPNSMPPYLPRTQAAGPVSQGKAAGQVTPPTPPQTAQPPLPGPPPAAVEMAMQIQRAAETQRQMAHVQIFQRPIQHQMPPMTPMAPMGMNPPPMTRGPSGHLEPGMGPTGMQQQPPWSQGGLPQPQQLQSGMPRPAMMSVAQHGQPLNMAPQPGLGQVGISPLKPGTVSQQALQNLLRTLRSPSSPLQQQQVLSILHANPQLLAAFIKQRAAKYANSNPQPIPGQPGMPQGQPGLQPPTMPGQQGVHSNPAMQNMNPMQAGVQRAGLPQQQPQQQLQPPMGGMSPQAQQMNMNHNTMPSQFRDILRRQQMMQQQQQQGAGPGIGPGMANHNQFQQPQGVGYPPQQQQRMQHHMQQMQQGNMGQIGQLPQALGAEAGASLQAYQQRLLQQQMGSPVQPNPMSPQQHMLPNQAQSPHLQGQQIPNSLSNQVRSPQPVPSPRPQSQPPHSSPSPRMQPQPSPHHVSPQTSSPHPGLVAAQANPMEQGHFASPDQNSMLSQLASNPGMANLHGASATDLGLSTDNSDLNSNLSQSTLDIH
- Sequence (Q96SW2 whole entry): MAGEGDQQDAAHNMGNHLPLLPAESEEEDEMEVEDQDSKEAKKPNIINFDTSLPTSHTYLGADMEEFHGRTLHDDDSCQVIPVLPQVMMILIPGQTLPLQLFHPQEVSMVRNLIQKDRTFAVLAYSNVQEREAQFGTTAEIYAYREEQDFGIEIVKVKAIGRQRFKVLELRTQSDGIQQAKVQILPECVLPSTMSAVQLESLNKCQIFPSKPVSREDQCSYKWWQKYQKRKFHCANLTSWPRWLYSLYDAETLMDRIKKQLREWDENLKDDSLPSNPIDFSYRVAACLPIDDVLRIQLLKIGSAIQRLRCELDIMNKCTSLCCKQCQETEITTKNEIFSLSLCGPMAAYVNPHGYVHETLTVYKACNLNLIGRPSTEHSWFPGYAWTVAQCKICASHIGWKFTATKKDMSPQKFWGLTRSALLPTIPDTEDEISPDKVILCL
- test_name: PROTAC activity at p300/CRBN in human U2OS cells assessed as induction of p300 degradation incubated for 24 hrs by Nan-glo HiBiT lytic assay
- Type: cell-based
Values of DC50 strictly less than 20 nM map to Yes, and values of at least 20 nM map to No.

molecule	system_name	group_label
CC(=O)N1CCc2c(c(N3CCCc4cc(-c5cnn(C)c5)c(C(F)F)cc43)nn2C2CCN(C(=O)CCN3Cc4cc5c(cc4C3)C(=O)N(C3CCC(=O)NC3=O)C5=O)CC2)C1 (configuration not stated)	Protein cereblon/Histone acetyltransferase p300 (Homo sapiens, UniProt Q09472+Q96SW2)	No
CC(=O)N1CCc2c(c(N3CCCc4cc(-c5ccccc5)c(C(F)F)cc43)nn2C2CCN(C(=O)CN3Cc4cc5c(cc4C3)C(=O)N(C3CCC(=O)NC3=O)C5=O)CC2)C1 (configuration not stated)	Protein cereblon/Histone acetyltransferase p300 (Homo sapiens, UniProt Q09472+Q96SW2)	No
CC(=O)N1CCc2c(c(N3CCCc4cc(C)c(C(F)F)cc43)nn2C2CCN(C(=O)CN3Cc4cc5c(cc4C3)C(=O)N(C3CCC(=O)NC3=O)C5=O)CC2)C1 (configuration not stated)	Protein cereblon/Histone acetyltransferase p300 (Homo sapiens, UniProt Q09472+Q96SW2)	Yes
CC(=O)N1CCc2c(c(N3CCCc4cc(Br)c(C(F)F)cc43)nn2C2CCN(C(=O)CN3Cc4cc5c(cc4C3)C(=O)N(C3CCC(=O)NC3=O)C5=O)CC2)C1 (configuration not stated)	Protein cereblon/Histone acetyltransferase p300 (Homo sapiens, UniProt Q09472+Q96SW2)	Yes
CC(=O)N1CCc2c(c(N3CCCc4cc(-c5cnn(C)c5)c(C(F)F)cc43)nn2C2CCN(CC(=O)N3Cc4cc5c(cc4C3)C(=O)N(C3CCC(=O)NC3=O)C5=O)CC2)C1 (configuration not stated)	Protein cereblon/Histone acetyltransferase p300 (Homo sapiens, UniProt Q09472+Q96SW2)	No
CC(=O)N1CCc2c(c(N3CCCc4cc(-c5ccc(F)cc5)c(C(F)F)cc43)nn2C2CCN(C(=O)CN3Cc4cc5c(cc4C3)C(=O)N(C3CCC(=O)NC3=O)C5=O)CC2)C1 (configuration not stated)	Protein cereblon/Histone acetyltransferase p300 (Homo sapiens, UniProt Q09472+Q96SW2)	No
CCc1cc2c(cc1C(F)F)N(c1nn(C3CCN(C(=O)CN4Cc5cc6c(cc5C4)C(=O)N(C4CCC(=O)NC4=O)C6=O)CC3)c3c1CN(C(C)=O)CC3)CCC2 (configuration not stated)	Protein cereblon/Histone acetyltransferase p300 (Homo sapiens, UniProt Q09472+Q96SW2)	Yes
CC(=O)N1CCc2c(c(N3CCCc4ccc(C(F)F)cc43)nn2C2CCN(C(=O)CN3Cc4cc5c(cc4C3)C(=O)N(C3CCC(=O)NC3=O)C5=O)CC2)C1 (configuration not stated)	Protein cereblon/Histone acetyltransferase p300 (Homo sapiens, UniProt Q09472+Q96SW2)	No
CC(=O)N1CCc2c(c(N3CCCc4cc(C(C)C)c(C(F)F)cc43)nn2C2CCN(C(=O)CN3Cc4cc5c(cc4C3)C(=O)N(C3CCC(=O)NC3=O)C5=O)CC2)C1 (configuration not stated)	Protein cereblon/Histone acetyltransferase p300 (Homo sapiens, UniProt Q09472+Q96SW2)	No
CC(=O)N1CCc2c(c(N3CCCc4cc(-c5cnn(C)c5)c(C(F)F)cc43)nn2C2CCN(C(=O)N3Cc4cc5c(cc4C3)C(=O)N(C3CCC(=O)NC3=O)C5=O)CC2)C1 (configuration not stated)	Protein cereblon/Histone acetyltransferase p300 (Homo sapiens, UniProt Q09472+Q96SW2)	No
CC(=O)N1CCc2c(c(N3CCCc4cc(C5CC5)c(C(F)F)cc43)nn2C2CCN(C(=O)CN3Cc4cc5c(cc4C3)C(=O)N(C3CCC(=O)NC3=O)C5=O)CC2)C1 (configuration not stated)	Protein cereblon/Histone acetyltransferase p300 (Homo sapiens, UniProt Q09472+Q96SW2)	No
CC(=O)N1CCc2c(c(N3CCCc4cc(-c5cnn(C)c5)c(C(F)F)cc43)nn2C2CCN(C(=O)CCCCCN3Cc4cc5c(cc4C3)C(=O)N(C3CCC(=O)NC3=O)C5=O)CC2)C1 (configuration not stated)	Protein cereblon/Histone acetyltransferase p300 (Homo sapiens, UniProt Q09472+Q96SW2)	No
